Item-by-item account of suppression of histamine-induced bronchial contraction
# Tested on: trachea of a guinea pig
# EXPERIMENT NOTES: Effect on trachea in vivo: inhibition of histamine-induced tracheal contraction (modified Konzett-Rossler method)
# CONDITION CONTEXT: contraction induced by intravenous administration of 1 mg/kg of histamine (as printed in text)
MEASURED PARAMETER: suppression of histamine-induced bronchial contraction (%)

1) CCCCCCN(CCN)S(=O)(=O)c1cccc2cnccc12.Cl; 9
2) O=S(=O)(NCCN1CCCN(Cc2ccc3c(c2)OCO3)CC1)c1ccc(Cl)c2ncccc12; 45
3) Cn1c(=O)c2[nH]cnc2n(C)c1=O; 7
4) O=S(=O)(NCCNCc1ccc2c(c1)OCO2)c1cccc2cnccc12; 36
5) Cl.NC1CCCN(S(=O)(=O)c2cccc3cnccc23)C1 (centres unmarked); 12
